# Tested on: BaF3
# experiment_notes: Antiproliferative activity against mouse BaF3 cells harboring FLT3-ITD mutant assessed as inhibition of cell growth
# Format: functional, cell-based
# condition_info: baf3
experimental_endpoint: IC50 (nM)

1) CC1(COc2ccc(Nc3ncc(C(F)(F)F)c(N[C@H]4CC[C@@H](N)CC4)n3)cc2)COC1; 0.91

----------
# experiment_notes: Antiproliferative activity against human PBMC cells assessed as inhibition of cell growth
# Type: toxicity, cell-based
experimental_endpoint: IC50 (µM)

1) CC1(COc2ccc(Nc3ncc(C(F)(F)F)c(N[C@H]4CC[C@@H](N)CC4)n3)cc2)COC1; 7.86
2) CCc1nc(C(N)=O)c(Nc2ccc(N3CCC(N4CCN(C)CC4)CC3)c(OC)c2)nc1NC1CCOCC1; 7.03

Attribution: ChEMBL document CHEMBL5390233
